Sourced from paper PMC6858373

Would you mind telling me the reported Split Luciferase Assay Z-score Set 2 of each entry?
target: FGF14:Nav1.6 C-tail complex (Homo sapiens, UniProt Q92915+Q9UQD0); construct: polymerase chain reaction (PCR) amplification of the FGF14 open reading frame (nt 1–855); C-terminal fragment of Nav1.6 (amino acids 1763–1976) fused with CD4ΔC-tail (amino acids 1–395); expressed in transfected cells; experiment: Split-luciferase complementation assay (LCA) in Clone V double stable HEK293 cells; assay type: cell-based; details: CC_NCI screening; LCA, biological replicate Set 2; normalized to on-plate 0.3% DMSO controls
Sequence (Q92915 1-252 isoform Q92915-2): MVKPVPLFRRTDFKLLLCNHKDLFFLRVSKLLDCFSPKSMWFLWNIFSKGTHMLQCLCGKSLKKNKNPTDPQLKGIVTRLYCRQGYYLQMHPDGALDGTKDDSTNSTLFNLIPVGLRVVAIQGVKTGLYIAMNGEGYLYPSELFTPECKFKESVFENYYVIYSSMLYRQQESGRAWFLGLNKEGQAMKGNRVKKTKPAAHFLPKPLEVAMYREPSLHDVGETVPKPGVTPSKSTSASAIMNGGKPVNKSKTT
Sequence (Q9UQD0 1763-1976 limits assumed): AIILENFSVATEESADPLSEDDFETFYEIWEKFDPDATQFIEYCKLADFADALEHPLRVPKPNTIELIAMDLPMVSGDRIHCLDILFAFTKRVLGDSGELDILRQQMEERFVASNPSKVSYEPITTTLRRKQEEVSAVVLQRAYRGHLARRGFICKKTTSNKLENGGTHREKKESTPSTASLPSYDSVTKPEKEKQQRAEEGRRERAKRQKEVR

Answer with the recorded Split Luciferase Assay Z-score Set 2 for the compound listed here: OCCn1cc(-c2cnc3nnn(Cc4ccc5ncccc5c4)c3n2)cn1 -1.79

Answer with the recorded Split Luciferase Assay Z-score Set 2 for the compound listed here: C=C(c1ccc(C(=O)O)cc1)c1cc2c(cc1C)C(C)(C)CCC2(C)C -0.01

Answer with the recorded Split Luciferase Assay Z-score Set 2 for the compound listed here: CN1CCN(CCOc2cc(OC3CCOCC3)c3c(Nc4c(Cl)ccc5c4OCO5)ncnc3c2)CC1 [AZD 0530] -3.23

Answer with the recorded Split Luciferase Assay Z-score Set 2 for the compound listed here: CN1CCN(CCOc2cc(OC3CCOCC3)c3c(Nc4c(Cl)ccc5c4OCO5)ncnc3c2)CC1 [SARACATINIB] -0.10

Answer with the recorded Split Luciferase Assay Z-score Set 2 for the compound listed here: CCCS(=O)(=O)Nc1ccc(F)c(C(=O)c2c[nH]c3ncc(-c4ccc(Cl)cc4)cc23)c1F [PLX4032] -4.24

Answer with the recorded Split Luciferase Assay Z-score Set 2 for the compound listed here: CO[C@H]1C[C@@H]2CC[C@@H](C)[C@@](O)(O2)C(=O)C(=O)N2CCCC[C@H]2C(=O)O[C@H]([C@H](C)C[C@@H]2CC[C@@H](O)[C@H](OC)C2)CC(=O)[C@H](C)/C=C(\C)[C@@H](O)[C@@H](OC)C(=O)[C@H](C)C[C@H](C)/C=C/C=C/C=C/1C -2.04

Answer with the recorded Split Luciferase Assay Z-score Set 2 for the compound listed here: CCN(CC)CCNC(=O)c1c(C)[nH]c(/C=C2\C(=O)Nc3ccc(F)cc32)c1C [Sunitinib] -2.21

Answer with the recorded Split Luciferase Assay Z-score Set 2 for the compound listed here: N#Cc1ccc(C(c2ccc(C#N)cc2)n2cncn2)cc1 1.26

Answer with the recorded Split Luciferase Assay Z-score Set 2 for the compound listed here: CNC(=O)c1ccccc1Sc1ccc2c(/C=C/c3ccccn3)n[nH]c2c1 [Axitinib] -5.60

Answer with the recorded Split Luciferase Assay Z-score Set 2 for the compound listed here: C#CCC(Cc1cnc2nc(N)nc(N)c2n1)c1ccc(C(=O)N[C@@H](CCC(=O)O)C(=O)O)cc1 (stereo partly drawn) [Pralatrexate] 0.50

Answer with the recorded Split Luciferase Assay Z-score Set 2 for the compound listed here: CN(C)C(=N)N=C(N)N 1.17

Answer with the recorded Split Luciferase Assay Z-score Set 2 for the compound listed here: CN(C)CC[C@H](CSc1ccccc1)Nc1ccc(S(=O)(=O)NC(=O)c2ccc(N3CCN(Cc4ccccc4-c4ccc(Cl)cc4)CC3)cc2)cc1[N+](=O)[O-] 2.19

Answer with the recorded Split Luciferase Assay Z-score Set 2 for the compound listed here: COc1cc2c(Oc3ccc4[nH]c(C)cc4c3F)ncnc2cc1OCCCN1CCCC1 -3.48

Answer with the recorded Split Luciferase Assay Z-score Set 2 for the compound listed here: COc1nc(N)nc2c1ncn2[C@@H]1O[C@H](CO)[C@@H](O)[C@@H]1O 1.17

Answer with the recorded Split Luciferase Assay Z-score Set 2 for the compound listed here: C[C@]12CC[C@@H]3c4ccc(O)cc4C[C@@H](CCCCCCCCC[S+]([O-])CCCC(F)(F)C(F)(F)F)[C@H]3[C@@H]1CC[C@@H]2O (stereo partly drawn) -0.69
